Cited source: PubChem BioAssay AID1745844

test system: rodent lifetime carcinogenesis bioassay, tumor incidence TD50; experiment: carcinogenic potency in animals, long-term in vivo studies, CPDB compilation (AID 1745844); conditions: rat; strain Sprague-Dawley; females; by gavage; site: pituitary gland; lesion: adenoma; dosed 52 weeks; study length 52 weeks
ENDPOINT: TD50

query: // fetch TD50 given entry "CC/C(=C(/CC)c1ccc(O)cc1)c1ccc(O)cc1"
result: 7.68 mg/kg/day

----------
tested on: rodent lifetime carcinogenesis bioassay, tumor incidence TD50; assay: carcinogenic potency in animals, long-term in vivo studies, CPDB compilation (AID 1745844); settings: mouse; strain Swiss albino; females; in drinking water; site: lung; lesion: adenoma; dosed 80 weeks; study length 80 weeks
ENDPOINT: TD50

query: Report measured TD50; entry is "NNC(=O)c1ccncc1"
result: 189 mg/kg/day

----------
tested on: rodent lifetime carcinogenesis bioassay, tumor incidence TD50; assay: carcinogenic potency in animals, long-term in vivo studies, CPDB compilation (AID 1745844); details: rat; strain Fischer 344; females; by gavage; site: thyroid gland; lesion: c-cell adenoma; dosed 100 weeks; study length 104 weeks
ENDPOINT: TD50 (mg/kg/day)
Kindly provide the numeric value in mg/kg/day only, without the unit symbol.

query: Determine from records and report TD50 for "CC(C)=CCl"
result: 225

----------
test system: rodent lifetime carcinogenesis bioassay, tumor incidence TD50; assay: carcinogenic potency in animals, long-term in vivo studies, CPDB compilation (AID 1745844); conditions: rat; strain Alpk:APfSD; males; in feed; site: testis; lesion: one or several types; types not named; dosed 104 weeks; study length 104 weeks
Active and inactive are the calls of the source. The rule behind the calls is not given here.
ENDPOINT: TD50

query: Report TD50, nothing else, for this compound: CC(=O)Nc1ccc(OCC(O)CNC(C)C)cc1 (stereo unspecified)
result: 194 mg/kg/day (inactive)

----------
test system: rodent lifetime carcinogenesis bioassay, tumor incidence TD50; assay: carcinogenic potency in animals, long-term in vivo studies, CPDB compilation (AID 1745844); settings: mouse; strain Swiss albino; females; in drinking water; site: liver; lesion: angiosarcoma; dosed 121 weeks; study length 121 weeks
Active and inactive are the calls of the source. How the calls were made is not given here.
Reported TD50 values for a set of compounds

query: State its TD50: "NNCc1ccccc1"
result: 252 mg/kg/day (inactive)

More entries:
query: Read off the recorded TD50 for "N[C@@H](CCC(=O)NNc1ccc(CO)cc1)C(=O)O"
result: 2720 mg/kg/day

----------
test system: rodent lifetime carcinogenesis bioassay, tumor incidence TD50; test: carcinogenic potency in animals, long-term in vivo studies, CPDB compilation (AID 1745844); conditions: mouse; strain B6C3F1; females; in feed; site: liver; lesion: hepatocellular adenoma + hepatocellular carcinoma + neoplastic nodule; dosed 97 weeks; study length 97 weeks
ENDPOINT: TD50

query: Using known records, supply TD50 for "COc1ccc(C)cc1N"
result: 301 mg/kg/day

----------
tested on: rodent lifetime carcinogenesis bioassay, tumor incidence TD50; experiment: carcinogenic potency in animals, long-term in vivo studies, CPDB compilation (AID 1745844); conditions: rat; strain Fischer 344; males; inhaled; site: testis; lesion: interstitial-cell adenoma, bilateral + interstitial-cell adenoma; dosed 103 weeks; study length 104 weeks
ENDPOINT: TD50 (mg/kg/day)
The reply should contain only the number, in mg/kg/day.

query: Output TD50 of "FC(F)=C(F)F"
result: 27.5

----------
Parameter: TD50. Scope: all listed entries.
tested on: rodent lifetime carcinogenesis bioassay, tumor incidence TD50; assay: carcinogenic potency in animals, long-term in vivo studies, CPDB compilation (AID 1745844); conditions: mouse; strain CD-1 HaM/ICR; males; in feed; site: lung; lesion: several types; types named in the paper; dosed 77 weeks; study length 86 weeks
Activity calls are given as the source filed them. No rule for the calls is given here.

query: Recall the reported TD50 of C1C2OC2C2C1C1CC2C2OC12 (configuration not stated) when tested on rodent lifetime carcinogenesis bioassay, tumor incidence TD50.
result: 373 mg/kg/day (inactive)

Further cases:
query: Tell me its TD50 on rodent lifetime carcinogenesis bioassay, tumor incidence TD50: "Nc1ccccc1N"
result: 3210 mg/kg/day (inactive)
